The values you see were collected from PubChem BioAssay (NCI).

# Test system: COLO 205 colon
# protocol description: NCI tumour cell line growth inhibition, 48 h; in the data active = GI50 below about 0.43 µM; inactive = the rest
Pick one and only one: active, inactive

Known results for compounds:
{"compound": "CC(C)(C)c1[nH]cnc1/C=c1\\[nH]c(=O)/c(=C/c2ccccc2)[nH]c1=O", "class name": "active"}
{"compound": "COc1cccc2c1-c1c(c3ccc([N+](=O)[O-])cc3c(=O)n1CCCCl)C2=O", "class name": "inactive"}
{"compound": "CC(=O)OCC(=O)O[C@@H]1C[C@]2(C(C)C)O[C@@]1(C)[C@@H]1CC[C@@H](C)[C@H]1[C@@H]2OC(=O)/C=C/c1ccccc1", "class name": "inactive"}

(Q) Per the records of this test, what outcome belongs to Cc1noc(C)c1-c1cc(O)cc(C(O)c2ccccc2)c1 (stereo not given) ?
(A) inactive

(Q) Per the records of this test, what outcome belongs to `O=c1cc(N2CCNCC2)oc2c(-c3ccccc3)cccc12` ?
(A) inactive
